Tested on: ryegrass, Italian (Italian ryegrass, Lolium multiflorum)
Assay: Test A greenhouse herbicide test, pre- and postemergence
Format: in vivo
Settings: Preemergence, 125 g ai/ha; visual injury rating, 0 to 100 scale (0 no effect, 100 complete control), approx. 10 d
Reported Plant response rating, Ryegrass, Italian values for a set of compounds
Simply state the number, no unit and no words.

Quick one: Plant response rating, Ryegrass, Italian of COC(=O)Cn1nc(C)c(O)c(-c2cccc3ccccc23)c1=O [Compound 172] ?
0

Quick one: Plant response rating, Ryegrass, Italian of Cc1cc(C)c2ccccc2c1-c1c(OS(C)(=O)=O)c(C)nn(C)c1=O [Compound 154] ?
90

Quick one: Plant response rating, Ryegrass, Italian of Cc1n[nH]c(=O)c(-c2cccc3ccccc23)c1OC(F)F [Compound 175] ?
20

Quick one: Plant response rating, Ryegrass, Italian of CC(=O)Oc1c(C)nn(C)c(=O)c1-c1c([N+](=O)[O-])ccc2ccccc12 [Compound 164] ?
60
